Assay: Plasma protein binding, Rapid Equilibrium Dialysis
Type: in vitro ADME
Details: both sexes, Sprague Dawley, plasma (EDTA K2, pooled), rat plasma, 4 h at 37 °C, read-out: PPB (converted)
Please respond with reported fraction unbound at 4 h, 5 µM for every item in the list.
In your answer, state the number alone without any accompanying words.

Problem: // query fraction unbound at 4 h, 5 µM value for entry CC(C)[C@H](NC(=O)[C@H](C)NC(=O)[C@H](Cc1ccccc1)NC(=O)c1ccccc1)C(=O)C(=O)NCC(=O)N1CC[N+](C)(C)CC1.O=C[O-]
Result: 0.365

Problem: // query fraction unbound at 4 h, 5 µM value for entry CC(C)[C@H](NC(=O)[C@H](C)NC(=O)[C@@H](NC(=O)c1ccccc1)C(C)(C)C)C(=O)C(=O)NCc1ccccc1
Result: 0.04

Problem: // query fraction unbound at 4 h, 5 µM value for entry CC(C)[C@H](NC(=O)[C@H](C)NC(=O)[C@@H](NC(=O)c1ccccc1)C(C)(C)C)C(=O)C(=O)NC1CC1
Result: 0.155

Problem: // query fraction unbound at 4 h, 5 µM value for entry CC(C)[C@H](NC(=O)[C@H](C)NC(=O)[C@@H](NC(=O)C1CC[N+](C)(C)CC1)C(C)(C)C)C(=O)C(=O)NCc1ccccc1.O=C[O-]
Result: 0.388

Problem: // query fraction unbound at 4 h, 5 µM value for entry CC(C)[C@H](NC(=O)[C@H](C)NC(=O)[C@@H](N1Cc2ccccc2C1=O)C(C)(C)C)C(=O)C(=O)NCc1ccccc1
Result: 0.02

----------
Assay: Pharmacokinetics after oral and iv dosing to rats
Type: in vivo, Sprague-Dawley rat
Conditions: rat, 5 mg/kg po
Protocol: Appendix 2. Pharmaco kinetics an d P l a s ma Protein Binding […] Pharma cokinetics. In vivo PK characteristics were determined using non- fasted Sprague-Dawle y rats (mal e, 200-300 g, 10- 16 weeks of age) with groups of three animals per route per compound. […] Blood samples were obtained at various times after dosing and plasma prepared for LC -MS-MS quantification of the test substance after inclusion of an intern al standard . […]
reported.endpoint: free conc Cmax (nM)
The reply should contain only the number, in nM.

Problem: // query free conc Cmax value for entry CC(C)[C@H](NC(=O)[C@H](C)NC(=O)[C@@H](NC(=O)c1ccccc1)C(C)(C)C)C(=O)C(=O)NCc1ccccc1 [Compound 38]
Result: 29

Problem: // query free conc Cmax value for entry CC(C)[C@H](NC(=O)[C@H](C)NC(=O)[C@@H](NC(=O)C1CC[N+](C)(C)CC1)C(C)(C)C)C(=O)C(=O)NCc1ccccc1.O=C[O-] [Compound 32]
Result: 8

Problem: // query free conc Cmax value for entry CC(C)[C@H](NC(=O)[C@H](C)NC(=O)[C@H](Cc1ccccc1)NC(=O)c1ccccc1)C(=O)C(=O)NCC(=O)N1CC[N+](C)(C)CC1.O=C[O-] [Compound 52]
Result: 3

Problem: // query free conc Cmax value for entry CC(C)[C@H](NC(=O)[C@H](C)NC(=O)[C@@H](N1Cc2ccccc2C1=O)C(C)(C)C)C(=O)C(=O)NCc1ccccc1 [Compound 28]
Result: 11

Problem: // query free conc Cmax value for entry CC(C)[C@H](NC(=O)[C@H](C)NC(=O)[C@@H](NC(=O)c1ccccc1)C(C)(C)C)C(=O)C(=O)NC1CC1 [Compound 35]
Result: 176

Hey, just so you know, these numbers are from paper PMC4257840.
